target: PI3Kγ (p110γ) Recombinant Human Protein (Homo sapiens (Human)); test: PI3K-γ Scintillation Proximity Assay; conditions: read-out: PI3K-gamma SPA IC50
Sequence (P48736 whole entry): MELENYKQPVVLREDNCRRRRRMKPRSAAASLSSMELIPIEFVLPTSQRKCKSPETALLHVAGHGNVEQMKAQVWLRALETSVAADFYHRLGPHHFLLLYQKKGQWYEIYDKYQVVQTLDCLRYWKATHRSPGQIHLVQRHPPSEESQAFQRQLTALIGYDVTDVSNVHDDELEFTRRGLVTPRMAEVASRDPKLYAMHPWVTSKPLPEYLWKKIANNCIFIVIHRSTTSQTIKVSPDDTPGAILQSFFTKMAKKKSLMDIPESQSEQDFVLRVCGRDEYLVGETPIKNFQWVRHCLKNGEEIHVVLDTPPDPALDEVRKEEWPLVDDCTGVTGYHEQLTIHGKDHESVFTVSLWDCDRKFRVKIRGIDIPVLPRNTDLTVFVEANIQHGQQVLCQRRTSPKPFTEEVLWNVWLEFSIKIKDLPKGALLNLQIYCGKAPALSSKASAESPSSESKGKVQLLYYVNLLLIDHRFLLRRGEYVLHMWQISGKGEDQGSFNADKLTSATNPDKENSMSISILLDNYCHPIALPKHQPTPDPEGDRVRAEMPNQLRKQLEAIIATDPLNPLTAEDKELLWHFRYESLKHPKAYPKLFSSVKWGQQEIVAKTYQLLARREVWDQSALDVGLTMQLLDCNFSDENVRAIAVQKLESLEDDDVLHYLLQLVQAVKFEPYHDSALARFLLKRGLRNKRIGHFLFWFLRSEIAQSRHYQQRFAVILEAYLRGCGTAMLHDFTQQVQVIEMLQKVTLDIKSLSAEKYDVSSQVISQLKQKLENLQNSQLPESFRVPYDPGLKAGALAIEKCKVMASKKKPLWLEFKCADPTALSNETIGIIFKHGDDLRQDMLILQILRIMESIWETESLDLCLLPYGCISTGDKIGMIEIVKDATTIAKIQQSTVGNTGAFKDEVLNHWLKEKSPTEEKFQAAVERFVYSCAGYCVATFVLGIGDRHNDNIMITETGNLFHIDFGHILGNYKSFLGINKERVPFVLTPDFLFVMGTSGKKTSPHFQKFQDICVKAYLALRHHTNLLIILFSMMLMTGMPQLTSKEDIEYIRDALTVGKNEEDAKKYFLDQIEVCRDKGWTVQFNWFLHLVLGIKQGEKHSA
Counter-ions that a name gives are not always drawn.
Measured property: IC50

Q: I'd like to know its IC50. The compound in question is Cc1nc(-c2cc(-c3cncc(C(=O)N4CCC(CCO)C4)c3)ccn2)[nH]c1C (racemic)
Ans: ≤ 100 nM

Q: And Cc1nc(-c2cc(-c3cncc(C(=O)NCc4ccccc4)c3)ccn2)[nH]c1C [Example 192, trifluoroacetate salt] ?
Ans: ≤ 100 nM

Q: And COc1ccccc1Nc1nc(-c2cc(-c3cncc(N4CCOCC4)c3)ccn2)[nH]c1C [Example 307, Trifluoroacetate Salt] ?
Ans: ≤ 500 nM

Q: And Clc1ccccc1Cn1cc(-c2ccnc(-c3ncc(-c4ccccc4)[nH]3)c2)cn1 [Example 7, trifluoroacetate salt] ?
Ans: ≤ 100 nM

Q: And O=S(=O)(C1CC1)n1cc(-c2ccnc(-c3ncc(-c4ccccc4)[nH]3)c2)cn1 [Example 46, trifluoroacetate salt] ?
Ans: ≤ 100 nM

Q: And Cc1nc(-c2cc(-c3cncc(C(=O)N4CCC5(CC4)COC5)c3)ccn2)[nH]c1C [Example 165, trifluoroacetate salt] ?
Ans: ≤ 50 nM

Q: And Cc1nc(-c2cc(-c3cncc(C(=O)N4CCC4C(F)(F)F)c3)ccn2)[nH]c1C (racemic) [Example 184, trifluoroacetate salt] ?
Ans: ≤ 50 nM

Q: And CN1CCN(c2cncc(-c3ccnc(-c4ncc(-c5ccccc5)[nH]4)c3)c2)CC1 [Example 37, trifluoroacetate salt] ?
Ans: > 500 nM

Q: And COc1cncc(-c2cc(-c3nc4ccccc4[nH]3)ncn2)c1 [Example 95, trifluoroacetate salt] ?
Ans: > 500 nM

Q: And c1cc(-c2cncc(N3CCOCC3)c2)cc(-c2ncc(C3CC3)[nH]2)n1 [Example 102, trifluoroacetate salt] ?
Ans: ≤ 100 nM

----------
molecular target: PI3Kδ (p110δ/p85α) Recombinant Human Protein (Homo sapiens (Human)); test: PI3Kδ Scintillation Proximity Assay; conditions: read-out: PI3K-delta SPA IC50
Where a name gives a salt, the structure may show the parent alone.
Measured property: IC50

Q: I'd like to know its IC50. The compound in question is Cc1n[nH]cc1-c1ccnc(-c2ncc(-c3ccccc3)[nH]2)c1 [Example 9, trifluoroacetate salt]
Ans: ≤ 500 nM

Q: And COc1cncc(-c2ccnc(-c3nc4ccccc4[nH]3)n2)c1 [Example 94, Trifluoroacetate Salt] ?
Ans: > 500 nM

Q: And Cc1[nH]c(-c2cc(-c3cncc(N4CCOCC4)c3)ccn2)nc1C(=O)NC(C)(C)C [Example 266] ?
Ans: ≤ 50 nM

----------
target: PI3Kδ (p110δ/p85α) Recombinant Human Protein (Homo sapiens (Human), UniProt O00329); test: PI3Kδ Scintillation Proximity Assay; settings: read-out: PI3K-delta SPA IC50
Sequence (O00329 whole entry): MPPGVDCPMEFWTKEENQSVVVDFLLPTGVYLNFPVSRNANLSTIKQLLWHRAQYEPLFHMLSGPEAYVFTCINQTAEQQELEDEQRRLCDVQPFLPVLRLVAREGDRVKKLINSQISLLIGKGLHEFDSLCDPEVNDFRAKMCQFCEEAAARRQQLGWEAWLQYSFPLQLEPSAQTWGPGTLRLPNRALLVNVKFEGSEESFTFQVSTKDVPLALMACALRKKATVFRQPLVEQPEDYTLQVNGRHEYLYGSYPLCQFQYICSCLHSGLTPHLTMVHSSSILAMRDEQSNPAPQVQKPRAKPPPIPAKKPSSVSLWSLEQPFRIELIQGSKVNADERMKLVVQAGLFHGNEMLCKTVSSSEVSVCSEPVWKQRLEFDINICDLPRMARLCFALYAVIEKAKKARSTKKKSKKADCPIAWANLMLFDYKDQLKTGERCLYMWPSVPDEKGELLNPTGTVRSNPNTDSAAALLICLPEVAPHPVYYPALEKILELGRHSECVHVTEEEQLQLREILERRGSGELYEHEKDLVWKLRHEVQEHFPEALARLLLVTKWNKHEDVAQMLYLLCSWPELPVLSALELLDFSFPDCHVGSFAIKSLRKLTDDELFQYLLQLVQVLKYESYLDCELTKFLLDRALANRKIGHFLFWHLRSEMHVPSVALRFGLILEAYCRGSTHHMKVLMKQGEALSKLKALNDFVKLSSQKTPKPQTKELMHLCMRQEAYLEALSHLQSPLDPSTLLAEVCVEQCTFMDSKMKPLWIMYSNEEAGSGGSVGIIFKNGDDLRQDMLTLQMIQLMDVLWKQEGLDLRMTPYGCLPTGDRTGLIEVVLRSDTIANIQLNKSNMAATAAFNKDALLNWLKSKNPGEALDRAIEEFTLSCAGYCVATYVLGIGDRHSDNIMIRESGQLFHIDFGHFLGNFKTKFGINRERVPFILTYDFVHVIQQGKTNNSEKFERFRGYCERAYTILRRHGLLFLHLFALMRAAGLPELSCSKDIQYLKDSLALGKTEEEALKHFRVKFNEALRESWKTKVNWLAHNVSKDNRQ
Sequence (P27986 whole entry partner): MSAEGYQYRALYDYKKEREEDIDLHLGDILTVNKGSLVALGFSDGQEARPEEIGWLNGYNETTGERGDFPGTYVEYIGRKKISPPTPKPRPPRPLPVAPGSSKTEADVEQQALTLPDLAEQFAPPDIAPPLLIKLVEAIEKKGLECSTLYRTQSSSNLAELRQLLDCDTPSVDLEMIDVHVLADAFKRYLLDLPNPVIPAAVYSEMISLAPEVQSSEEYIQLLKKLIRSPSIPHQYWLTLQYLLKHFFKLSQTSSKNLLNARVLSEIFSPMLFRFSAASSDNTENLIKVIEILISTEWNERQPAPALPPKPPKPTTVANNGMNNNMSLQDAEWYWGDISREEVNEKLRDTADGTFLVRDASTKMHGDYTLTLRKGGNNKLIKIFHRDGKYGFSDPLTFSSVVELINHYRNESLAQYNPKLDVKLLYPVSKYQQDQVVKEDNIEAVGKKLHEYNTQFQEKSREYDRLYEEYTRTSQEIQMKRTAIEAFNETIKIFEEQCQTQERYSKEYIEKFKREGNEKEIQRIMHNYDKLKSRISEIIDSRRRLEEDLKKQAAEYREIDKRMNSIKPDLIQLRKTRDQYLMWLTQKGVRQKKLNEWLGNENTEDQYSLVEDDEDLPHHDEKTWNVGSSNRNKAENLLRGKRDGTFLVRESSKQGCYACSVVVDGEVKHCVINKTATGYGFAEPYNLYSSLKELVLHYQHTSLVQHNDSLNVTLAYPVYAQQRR
pIC50: −log10 of the molar value. Counter-ions that a name gives are not always drawn.
Would you kindly list pIC50 for each of these molecules?

Q: I'd like to know its pIC50. The molecule in question is c1ccc(-c2cnc(-c3cc(-c4cncc(NCC5CCOCC5)c4)ccn3)[nH]2)cc1 [Example 141, Trifluoroacetate Salt]
Ans: ≥ 7.30

Q: And Cc1nc(-c2cc(-c3cncc(C(=O)N4CCN(C)CC4)c3)ccn2)[nH]c1C ?
Ans: ≥ 6.30

Q: And COCC(=O)Nc1cncc(-c2ccnc(-c3ncc(-c4ccccc4)[nH]3)c2)c1 [Example 131, Trifluoroacetate Salt] ?
Ans: ≥ 7.30

Q: And COc1cncc(-c2ccnc(-c3cnc(NCC4CCC4)[nH]3)c2)c1 [Example 65, trifluoroacetate salt] ?
Ans: < 6.30

Q: And O=C(Cn1cc(-c2ccnc(-c3ncc(-c4ccccc4)[nH]3)c2)cn1)N1CCOCC1 [Example 51, trifluoroacetate salt] ?
Ans: < 6.30

----------
target: PI3Kγ (p110γ) Recombinant Human Protein (Homo sapiens (Human)); assay: PI3K-γ Scintillation Proximity Assay; conditions: read-out: PI3K-gamma SPA IC50
Counter-ions that a name gives are not always drawn.
Would you kindly list IC50 for each of these molecules?

Q: I'd like to know its IC50. The molecule in question is Cc1nc(-c2cc(-c3cncc(C(=O)N4CC(C#N)C4)c3)ccn2)[nH]c1C [Example 153, trifluoroacetate salt]
Ans: ≤ 50 nM

Q: And Cc1nc(-c2cc(-c3cncc(C(=O)NCC4CC4)c3)ccn2)[nH]c1C [Example 202, trifluoroacetate salt] ?
Ans: ≤ 100 nM

Q: And Cc1nc(-c2cc(-c3cncc(C(=O)N4CCOCC4)c3)ccn2)[nH]c1C [Example 148] ?
Ans: ≤ 100 nM

Q: And Cc1nc(-c2cc(-c3cncc(C(=O)N(C)CC#N)c3)ccn2)[nH]c1C [Example 203] ?
Ans: ≤ 50 nM

Q: And Cc1nc(-c2cc(-c3cncc(C(=O)N4CC5(CCN(C)C5=O)C4)c3)ccn2)[nH]c1C [Example 171, trifluoroacetate salt] ?
Ans: ≤ 100 nM

Q: And COCCNCc1nc(-c2cc(-c3cncc(N4CCOCC4)c3)ccn2)[nH]c1C [Example 290] ?
Ans: > 500 nM

Q: And Cc1nc(-c2cc(-c3cncc(C(=O)N4C5CCC4CC5)c3)ccn2)[nH]c1C [Example 179, trifluoroacetate salt] ?
Ans: ≤ 50 nM

Q: And Cc1nc(-c2cc(-c3cncc(C(=O)N(C)CC4(CO)CC4)c3)ccn2)[nH]c1C [Example 205, trifluoroacetate salt] ?
Ans: ≤ 50 nM

Q: And Cc1[nH]c(-c2cc(-c3cncc(N4CCOCC4)c3)ccn2)nc1CN[C@@H]1CCOC1 [Example 287] ?
Ans: > 500 nM

Q: And O=C(Cn1cc(-c2ccnc(-c3ncc(-c4ccccc4)[nH]3)c2)cn1)N1CCOCC1 [Example 51, trifluoroacetate salt] ?
Ans: > 500 nM

----------
biological target: PI3Kδ (p110δ/p85α) Recombinant Human Protein (Homo sapiens (Human), UniProt O00329); experiment: PI3Kδ Scintillation Proximity Assay; conditions: read-out: PI3K-delta SPA IC50
pIC50: −log10 of the molar value. Counter-ions that a name gives are not always drawn.
Would you kindly list pIC50 for each of these molecules?

Q: I'd like to know its pIC50. The molecule in question is COc1cncc(-c2ccnc(-c3nnc[nH]3)c2)c1
Ans: < 6.30

Q: And CS(=O)(=O)n1cc(-c2ccnc(-c3ncc(-c4ccccc4)[nH]3)c2)cn1 [Example 44, trifluoroacetate salt] ?
Ans: ≥ 6.30

Q: And COc1cncc(-c2cc(-c3nc4ccccc4[nH]3)ncn2)c1 [Example 95, trifluoroacetate salt] ?
Ans: < 6.30

Q: And CC(C)(C)OC(=O)Nc1cncc(-c2ccnc(-c3ncc(-c4ccccc4)[nH]3)c2)c1 ?
Ans: ≥ 6.30

Q: And O=S(=O)(C1CCCC1)n1cc(-c2ccnc(-c3ncc(-c4ccccc4)[nH]3)c2)cn1 [Example 54, trifluoroacetate salt] ?
Ans: ≥ 7.00

Q: And COc1cncc(-c2ccnc(-c3ncc(C(C)C)[nH]3)c2)c1 [Example 84, trifluoroacetate salt] ?
Ans: ≥ 6.30

Q: And Cc1nc(-c2cc(-c3cncc(N4CCOCC4)c3)ccn2)[nH]c1C1CC1 [Example 104, trifluoroacetate salt] ?
Ans: ≥ 7.30

Q: And Cc1[nH]c(-c2cc(-c3cncc(N4CCOCC4)c3)ccn2)nc1CNC(C)C ?
Ans: ≥ 6.30

Q: And Cc1[nH]c(-c2cc(-c3cncc(N4CCOCC4)c3)ccn2)nc1C(=O)NCc1ccccc1 [Example 272, trifluoroacetate salt] ?
Ans: ≥ 7.30

Q: And CCC1CCN(C(=O)c2cncc(-c3ccnc(-c4nc(C)c(C)[nH]4)c3)c2)C1 (stereo not shown) [Example 211, trifluoroacetate salt] ?
Ans: ≥ 7.30

Q: And Cc1[nH]c(-c2cc(-c3cncc(N4CCOCC4)c3)ccn2)nc1C(=O)N1CC(C)(C)C1 ?
Ans: ≥ 7.30

Q: And COC(=O)c1ccccc1Cn1cc(-c2ccnc(-c3ncc(-c4ccccc4)[nH]3)c2)cn1 [Example 30, trifluoroacetate salt] ?
Ans: < 6.30

Q: And Cc1[nH]c(-c2cc(-c3cncc(S(C)(=O)=O)c3)ccn2)nc1C(=O)N1CC(C#N)C1 ?
Ans: ≥ 7.30

----------
molecular target: PI3Kδ (p110δ/p85α) Recombinant Human Protein (Homo sapiens (Human), UniProt O00329); test: PI3Kδ Scintillation Proximity Assay; conditions: read-out: PI3K-delta SPA IC50
Where a name gives a salt, the structure may show the parent alone.
Would you kindly list IC50 for each of these compounds?

Q: I'd like to know its IC50. The compound in question is N#Cc1ccccc1Cn1cc(-c2ccnc(-c3ncc(-c4ccccc4)[nH]3)c2)cn1 [Example 6, trifluoroacetate salt]
Ans: ≤ 500 nM

Q: And COc1cncc(-c2ccnc(-c3ncc(-c4ccccc4)[nH]3)c2)c1 [Example 19, trifluoroacetate salt] ?
Ans: ≤ 50 nM

Q: And CC(C)c1cnc(-c2cc(-c3cncc(S(C)(=O)=O)c3)ccn2)[nH]1 [Example 111, trifluoroacetate salt] ?
Ans: ≤ 50 nM

Q: And Cc1nc(-c2cc(-c3cncc(C(=O)NCc4ccccc4)c3)ccn2)[nH]c1C [Example 192, trifluoroacetate salt] ?
Ans: ≤ 100 nM

Q: And Cc1nc(-c2cc(-c3cncc(C(=O)N4CCCC(c5ccccc5)C4)c3)ccn2)[nH]c1C (racemic) [Example 188, trifluoroacetate salt] ?
Ans: ≤ 500 nM

Q: And Cc1[nH]c(-c2cc(-c3cncc(S(C)(=O)=O)c3)ccn2)nc1C(F)F [Example 121, Trifluoroacetate Salt] ?
Ans: ≤ 50 nM

Q: And COC1CN(C(=O)c2nc(-c3cc(-c4cncc(N5CCOCC5)c4)ccn3)[nH]c2C)C1 ?
Ans: ≤ 50 nM

Q: And Cc1nc(-c2cc(-c3cncc(C(=O)N4CCCC4)c3)ccn2)[nH]c1C ?
Ans: ≤ 50 nM

Q: And Cc1[nH]c(-c2cc(-c3cncc(S(C)(=O)=O)c3)ccn2)nc1C(=O)N(C)C [Example 251, trifluoroacetate salt] ?
Ans: ≤ 100 nM

Q: And Cc1nc(-c2cc(-c3cncc(C(=O)N4CCC(C)(O)C4)c3)ccn2)[nH]c1C (racemic) [Example 180, trifluoroacetate salt] ?
Ans: ≤ 50 nM

Q: And Cc1[nH]c(-c2cc(-c3cncc(N4CCOCC4)c3)ccn2)nc1C(=O)NC1CCCCC1 ?
Ans: ≤ 50 nM

Q: And Cc1nc(-c2cc(-c3cncc(C(=O)N4CCOCC4)c3)ccn2)[nH]c1C ?
Ans: ≤ 500 nM

Q: And Cc1[nH]c(-c2cc(-c3cncc(N4CCOCC4)c3)ccn2)nc1C(=O)NC(C)C [Example 268, trifluoroacetate salt] ?
Ans: ≤ 50 nM

Q: And O=C(CCn1cc(-c2ccnc(-c3ncc(-c4ccccc4)[nH]3)c2)cn1)NC1CCCC1 [Example 59, trifluoroacetate salt] ?
Ans: > 500 nM

Q: And Cc1[nH]c(-c2cc(-c3cncc(S(C)(=O)=O)c3)ccn2)nc1C(=O)N[C@H]1CCOC1 [Example 255, trifluoroacetate salt] ?
Ans: ≤ 50 nM

Q: And Cc1[nH]c(-c2cc(-c3cncc(S(C)(=O)=O)c3)ccn2)nc1C(=O)N1CC[C@H](O)C1 ?
Ans: ≤ 500 nM

Q: And Cc1nc(-c2cc(C3=CCCN(S(C)(=O)=O)C3)ccn2)[nH]c1C [Example 220, trifluoroacetate salt] ?
Ans: > 500 nM

Q: And CCCCCNc1ncc(-c2cc(-c3cncc(OC)c3)ccn2)[nH]1 [Example 63, trifluoroacetate salt] ?
Ans: > 500 nM

Q: And Cc1nc(-c2cc(-c3cncc(C(=O)N4CC(O)C4)c3)ccn2)[nH]c1C [Example 152, trifluoroacetate salt] ?
Ans: ≤ 50 nM

Q: And Clc1ccc(Cn2cc(-c3ccnc(-c4nc(C5CCNC5)c[nH]4)c3)cn2)cc1 (racemic) [Example 306, Trifluoroacetate Salt] ?
Ans: > 500 nM

Q: And Cc1nc(-c2cc(C3=CCCN(CC4CCOCC4)C3)ccn2)[nH]c1C [Example 225, trifluoroacetate salt] ?
Ans: > 500 nM
